# target: Human MMP17 (Homo sapiens)
# Sequence (Q9ULZ9 126-300 limits assumed): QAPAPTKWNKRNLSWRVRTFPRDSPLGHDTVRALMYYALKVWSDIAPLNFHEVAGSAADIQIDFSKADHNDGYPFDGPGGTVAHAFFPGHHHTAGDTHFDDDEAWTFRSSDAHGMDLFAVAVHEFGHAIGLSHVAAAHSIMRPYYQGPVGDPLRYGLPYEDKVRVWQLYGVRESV
parameter-measured: IC50 (µM)

Some molecules with recorded IC50:
Cc1cc(COc2ccc(S(=O)(=O)CC(c3ccccc3C)N(O)C=O)cc2)c2cccc(F)c2n1 (stereo not drawn) = 4.8
Cc1cc(COc2ccc(S(=O)(=O)CC(C3CCCN(C(=O)c4ccccc4)C3)N(O)C=O)cc2)c2ccccc2n1 (stereo not drawn) = 0.1
O=CN(O)C(C=C1CCC(=O)CC1)CS(=O)(=O)c1ccc(OCc2ccc3ccccc3n2)cc1 (stereo not drawn) = 42
C[C@@H]1O[C@@H](CO)CN(S(=O)(=O)c2ccc(OCc3ccc(F)cc3)cc2)[C@H]1C(=O)NO [compound 2, reference compound] = 0.021
Cc1cc(COc2ccc(S(=O)(=O)CC(C=C3CCN(C(=O)C(C)(C)C)CC3)N(O)C=O)cc2)c2ccccc2n1 (stereo not drawn) = 0.12

A: Cc1cc(COc2ccc(S(=O)(=O)CC(c3cccnc3C)N(O)C=O)cc2)c2ccccc2n1 (stereo not drawn)
B: Cc1cc(COc2ccc(S(=O)(=O)CC(C=C3CCSCC3)N(O)C=O)cc2)c2ccccc2n1 (stereo not drawn)
# compare IC50 for A vs B ; return the one with the smaller value Your choice should be expressed through its label.
A

1: Cc1cc(Cl)cc(COc2ccc(S(=O)(=O)CC(CC3CCC4(CC3)OCCO4)N(O)C=O)cc2)c1 (stereo not drawn)
2: COc1cc(C)cc(COc2ccc(S(=O)(=O)CC(C=C3CCC(=O)CC3)N(O)C=O)cc2)c1 (stereo not drawn)
# argmax over IC50 for candidates 1 and 2 Output the label that corresponds to your choice.
2

1: COCc1cc(COc2ccc(S(=O)(=O)CC(CC3CCC(=NO)CC3)N(O)C=O)cc2)cc(C)n1 (stereo not drawn)
2: Cc1cc(COc2ccc(S(=O)(=O)CC(C(Cl)=C3CCOCC3)N(O)C=O)cc2)c2ccccc2n1 (stereo not drawn)
3: Cc1cc(COc2ccc(S(=O)(=O)CC(CC3CCC(=NO)CC3)N(O)C=O)cc2)cc(C)n1 (stereo not drawn)
4: COCOC1CCC(C)(C(CS(=O)(=O)c2ccc(OCc3cc(C)nc4ccccc34)cc2)N(O)C=O)CC1 (stereo not drawn)
5: COCc1cc(COc2ccc(S(=O)(=O)CC(C=C3CCOCC3)N(O)C=O)cc2)cc(C)n1 (stereo not drawn)
Order the records, beginning with the lowest IC50 and ending with the highest. Answer by writing out the labels in the requested order.
4, 3, 2, 1, 5
(4: 0.54 µM, 3: 4 µM, 2: 7 µM, 1: 18 µM, 5: 42 µM)

----------
# target: Human MMP9 (Homo sapiens, UniProt P14780)
# Construct: purchased Calbiochem 444231
# Sequence (P14780 107-707 limits assumed): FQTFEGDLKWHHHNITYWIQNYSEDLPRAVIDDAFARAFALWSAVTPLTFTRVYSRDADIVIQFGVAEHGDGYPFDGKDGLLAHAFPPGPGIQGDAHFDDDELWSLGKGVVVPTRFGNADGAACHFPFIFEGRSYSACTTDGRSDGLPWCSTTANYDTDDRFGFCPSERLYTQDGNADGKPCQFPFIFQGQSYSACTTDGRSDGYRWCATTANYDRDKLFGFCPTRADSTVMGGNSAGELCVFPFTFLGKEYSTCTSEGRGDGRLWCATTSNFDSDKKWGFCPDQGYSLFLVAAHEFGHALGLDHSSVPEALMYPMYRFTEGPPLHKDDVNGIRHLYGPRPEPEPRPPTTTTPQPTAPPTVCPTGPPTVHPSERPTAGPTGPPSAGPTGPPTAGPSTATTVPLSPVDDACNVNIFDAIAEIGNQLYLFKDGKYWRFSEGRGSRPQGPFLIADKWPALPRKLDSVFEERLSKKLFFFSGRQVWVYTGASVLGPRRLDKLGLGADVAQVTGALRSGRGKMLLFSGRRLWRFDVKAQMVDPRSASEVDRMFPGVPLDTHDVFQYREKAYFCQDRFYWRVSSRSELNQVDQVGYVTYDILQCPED
# assay-remarks: MMP9 inhibition experiment
# Assay type: biochemical
# test-settings: read-out: IC50 value MMP-9
parameter-measured: IC50 (µM)

Consider the following illustrative entries.
Cc1ccc2nc(C)cc(COc3ccc(S(=O)(=O)CC(C=C4CCOCC4)N(O)C=O)cc3)c2c1 (centres unmarked) = 50
Cc1cc(COc2ccc(S(=O)(=O)CC(C=C3CCN(C(=O)C(C)(C)C)CC3)N(O)C=O)cc2)c2ccccc2n1 (centres unmarked) = 8
Cc1cc(COc2ccc(S(=O)(=O)CC(CC3CCC(=O)CC3)N(O)C=O)cc2)c2ccccc2n1 (centres unmarked) = 50
Cc1ccccc1C(CS(=O)(=O)c1ccc(OCc2ccc3ccccc3n2)cc1)N(O)C=O (centres unmarked) = 32

I: Cc1cc(COc2ccc(S(=O)(=O)CC(C3CCN(C(=O)OC(C)(C)C)CC3)N(O)C=O)cc2)c2ccccc2n1 (centres unmarked)
II: Cc1cc(COc2ccc(S(=O)(=O)CC(C=C3CCN(C(=O)c4ccccc4)CC3)N(O)C=O)cc2)c2ccccc2n1 (centres unmarked)
Hi team, can someone confirm which has the larger IC50: I or II ? Thanks. # answer = label of selected item
I
(I: 50 µM, II: 9 µM)

----------
# target: TACE (Homo sapiens, UniProt P78536)
# Construct: made in house; host or cells: mammalian cells or insect cells
# Sequence (P78536 215-824): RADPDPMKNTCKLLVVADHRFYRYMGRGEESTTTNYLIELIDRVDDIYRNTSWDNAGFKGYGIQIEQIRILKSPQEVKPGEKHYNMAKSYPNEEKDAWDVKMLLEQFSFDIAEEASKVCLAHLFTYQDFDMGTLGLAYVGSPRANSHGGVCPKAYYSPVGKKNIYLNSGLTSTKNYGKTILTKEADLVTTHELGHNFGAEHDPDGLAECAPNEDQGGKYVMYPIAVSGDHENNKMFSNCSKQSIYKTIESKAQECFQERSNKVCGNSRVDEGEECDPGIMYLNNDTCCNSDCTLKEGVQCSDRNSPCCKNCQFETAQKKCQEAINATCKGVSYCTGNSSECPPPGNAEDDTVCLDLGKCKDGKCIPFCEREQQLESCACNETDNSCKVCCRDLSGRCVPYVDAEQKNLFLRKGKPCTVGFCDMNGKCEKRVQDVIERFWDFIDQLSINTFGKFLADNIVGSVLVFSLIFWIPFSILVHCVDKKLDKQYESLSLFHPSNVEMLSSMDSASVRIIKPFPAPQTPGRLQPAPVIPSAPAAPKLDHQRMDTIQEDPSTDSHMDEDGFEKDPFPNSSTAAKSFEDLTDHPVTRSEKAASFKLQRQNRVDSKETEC
# assay-remarks: TACE inhibition experiment (in vitro)
# Assay type: biochemical
pIC50: −log10 of the molar value.
parameter-measured: pIC50

Below, 2 compounds whose answers are already recorded.
O=CN(O)C(C=C1CCC2(CC1)OCCO2)CS(=O)(=O)c1ccc(OCc2ccc3ccccc3n2)cc1 (stereo not shown) = 5.60
CCC(CC)C(=O)N1CCC(CC(CS(=O)(=O)c2ccc(OCc3cc(C)nc4ccccc34)cc2)N(O)C=O)CC1 (stereo not shown) = 8.00

A: Cc1cc(COc2ccc(S(=O)(=O)CC(CCC3(C)CCOCC3)N(O)C=O)cc2)c2ccccc2n1 (stereo not shown)
B: CCC(CC)CN1CCC(=CC(CS(=O)(=O)c2ccc(OCc3cc(C)nc4ccc(C)cc34)cc2)N(O)C=O)CC1 (stereo not shown)
For A and B , which recorded pIC50 is lower? State the label of the item chosen.
B

----------
# target: Human MMP9 (Homo sapiens)
# Construct: purchased Calbiochem 444231
# assay-remarks: MMP9 inhibition experiment
# Format: biochemical
# test-settings: read-out: IC50 value MMP-9
pIC50: −log10 of the molar value.
parameter-measured: pIC50

Worked examples follow.
Cc1cc(COc2ccc(S(=O)(=O)CC(c3ccccc3C)N(O)C=O)cc2)c2ccccc2n1 (stereo not drawn) [Example I-23] = 4.30
CC[C@H](C)[C@H](NC(=O)[C@H](CC(C)C)[C@H](C(C)C)N(O)C=O)C(=O)Nc1ccccn1 [compound 3, reference compound] = 7.52
Cc1cc(C)cc(COc2ccc(S(=O)(=O)CC(C=C3CCC4(CC3)OCCO4)N(O)C=O)cc2)c1 (stereo not drawn) [Example I-91] = 4.48
Cc1cc(Cl)cc(COc2ccc(S(=O)(=O)CC(C3CCC4(CC3)OCCO4)N(O)C=O)cc2)c1 (stereo not drawn) [Example I-98] = 4.70

P: Cc1cccc(C(CS(=O)(=O)c2ccc(OCc3cc(C)nc4ccccc34)cc2)N(O)C=O)c1 (stereo not drawn) [Example I-22]
Q: Cc1cc(COc2ccc(S(=O)(=O)CC(c3ccccc3C)N(O)C=O)cc2)c2cccc(F)c2n1 (stereo not drawn) [Example I-124]
Which of the two items, P and Q , has the greater recorded pIC50? The response must carry the label of the picked entry.
Q
(Q: 4.62, P: 4.28)

----------
# target: Human MMP17 (Homo sapiens, UniProt Q9ULZ9)
pIC50: −log10 of the molar value.
parameter-measured: pIC50

The examples below pair each entry with its known result.
Cc1ccc(C(CS(=O)(=O)c2ccc(OCc3cc(C)nc4ccc(F)cc34)cc2)N(O)C=O)cn1 (stereo not shown) = 5.10
C=C1CCC(C(CS(=O)(=O)c2ccc(OCc3cc(C)cc(C)c3)cc2)N(O)C=O)CC1 (stereo not shown) = 5.30
Cc1cc(COc2ccc(S(=O)(=O)CC(C=C3CCN(C(=O)OC(C)(C)C)CC3)N(O)C=O)cc2)c2ccccc2n1 (stereo not shown) = 6.22
CCN1CCC(=CC(CS(=O)(=O)c2ccc(OCc3cc(C)nc4ccccc34)cc2)N(O)C=O)CC1 (stereo not shown) = 5.10
Cc1cc(Cl)cc(COc2ccc(S(=O)(=O)CC(CC3CCC(=NO)CC3)N(O)C=O)cc2)c1 (stereo not shown) = 5.15

1: Cc1cc(COc2ccc(S(=O)(=O)N3CCSC(C)(C)[C@@H]3C(=O)NO)cc2)cc(C)n1 [compound 1, reference compound]
2: Cc1cc(COc2ccc(S(=O)(=O)CC(c3ccccc3C)N(O)C=O)cc2)c2cc(F)ccc2n1 (stereo not shown)
Which of the two gives a bigger number for pIC50: 1 or 2 ? Refer to your chosen entry by its label in the reply.
1

----------
# target: Human MMP13 (Homo sapiens)
# Construct: purchased Chemicon CC068
# assay-remarks: MMP13 inhibition experiment
# Type: biochemical
# test-settings: concentration required for 50% inhibition of enzyme activity; read-out: IC50 value MMP-13
pIC50: −log10 of the molar value.
parameter-measured: pIC50

P: Cc1cc(C)cc(COc2ccc(S(=O)(=O)CC(C=C3CCC(=O)CC3)N(O)C=O)cc2)c1 (stereo not shown)
Q: Cc1cc(COc2ccc(S(=O)(=O)CC(C=C3CCC(=O)CC3)N(O)C=O)cc2)cc(C)n1 (stereo not shown)
Which has the smaller recorded pIC50, P or Q ? Give the chosen item's label as your response.
P
(P: 4.46, Q: 5.00)

----------
pIC50: −log10 of the molar value.
List of pIC50 tested on Human MMP3 (Homo sapiens).
Sequence (P08254 100-272 limits assumed): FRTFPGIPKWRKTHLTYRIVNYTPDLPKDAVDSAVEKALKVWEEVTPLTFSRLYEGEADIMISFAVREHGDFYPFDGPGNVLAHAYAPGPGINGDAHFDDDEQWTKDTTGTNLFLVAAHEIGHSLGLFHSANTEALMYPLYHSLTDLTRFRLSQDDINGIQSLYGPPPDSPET
parameter-measured: pIC50

Observe how each entry below is paired with its result.
Cc1cc(COc2ccc(S(=O)(=O)CC(C=C3CCN(Cc4ccccc4)CC3)N(O)C=O)cc2)c2ccccc2n1 (stereo not drawn) [Example I-45] = 6.59
C=C1CCC(C(CS(=O)(=O)c2ccc(OCc3cc(C)nc4ccccc34)cc2)N(O)C=O)CC1 (stereo not drawn) [Example I-1] = 5.22
Cc1cc(Cl)cc(COc2ccc(S(=O)(=O)CC(C3CCC4(CC3)OCCO4)N(O)C=O)cc2)c1 (stereo not drawn) [Example I-98] = 5.92

P: Cc1cc(COc2ccc(S(=O)(=O)N3CCSC(C)(C)[C@@H]3C(=O)NO)cc2)cc(C)n1 [compound 1, reference compound]
Q: COc1ccc(CN2C(=O)SCC2C(CS(=O)(=O)c2ccc(OCc3cc(C)nc4ccccc34)cc2)N(O)C=O)cc1 (stereo not drawn) [Example I-59]
R: Cc1cc(COc2ccc(S(=O)(=O)CC(CC3CCC4(CC3)OCCO4)N(O)C=O)cc2)c2ccccc2n1 (stereo not drawn) [Example I-10]
// smallest pIC50 at index 0, largest at the end Reply: labels, ordered per the request.
Q, R, P
